target: T1, human collagen type I, acid soluble, extracted from placenta (Sigma C7774) (human, UniProt P02452 162-1218; P08123 80-1119); assay: dried collagen assay; further: test concentration or dose not given here
T1 construct: tissue extract, gelled and dried in wells; also called dried human collagen; h-Collagen
T1 sequence (P02452 162-1218 limits assumed, chain 1 of 2): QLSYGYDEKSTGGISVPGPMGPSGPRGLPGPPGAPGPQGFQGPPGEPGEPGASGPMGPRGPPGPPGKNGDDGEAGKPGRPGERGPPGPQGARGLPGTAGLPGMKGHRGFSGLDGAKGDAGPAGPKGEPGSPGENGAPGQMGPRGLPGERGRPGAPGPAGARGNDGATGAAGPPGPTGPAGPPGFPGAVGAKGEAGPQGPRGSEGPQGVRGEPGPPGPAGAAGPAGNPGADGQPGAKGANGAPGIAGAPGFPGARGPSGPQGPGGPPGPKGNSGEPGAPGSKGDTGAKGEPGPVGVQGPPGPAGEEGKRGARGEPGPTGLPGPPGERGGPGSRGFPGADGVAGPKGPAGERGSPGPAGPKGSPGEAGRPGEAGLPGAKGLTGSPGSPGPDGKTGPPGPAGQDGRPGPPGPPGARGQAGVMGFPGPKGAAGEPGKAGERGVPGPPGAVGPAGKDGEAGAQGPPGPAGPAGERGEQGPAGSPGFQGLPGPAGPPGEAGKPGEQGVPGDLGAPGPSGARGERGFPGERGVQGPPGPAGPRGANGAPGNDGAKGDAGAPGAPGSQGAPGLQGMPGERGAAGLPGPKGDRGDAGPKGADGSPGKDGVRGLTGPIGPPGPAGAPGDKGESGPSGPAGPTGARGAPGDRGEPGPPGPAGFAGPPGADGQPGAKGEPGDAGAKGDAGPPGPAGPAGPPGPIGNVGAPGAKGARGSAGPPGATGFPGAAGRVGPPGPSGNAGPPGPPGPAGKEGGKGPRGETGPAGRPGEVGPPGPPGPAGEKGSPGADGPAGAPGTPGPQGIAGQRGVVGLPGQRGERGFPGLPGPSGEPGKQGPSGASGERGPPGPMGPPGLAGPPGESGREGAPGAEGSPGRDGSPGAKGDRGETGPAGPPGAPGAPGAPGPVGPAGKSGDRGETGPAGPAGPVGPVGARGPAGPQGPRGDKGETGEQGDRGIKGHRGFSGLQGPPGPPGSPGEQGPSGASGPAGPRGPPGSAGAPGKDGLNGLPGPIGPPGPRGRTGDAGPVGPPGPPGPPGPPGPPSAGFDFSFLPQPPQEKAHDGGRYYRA
T1 sequence (P08123 80-1119 limits assumed, chain 2 of 2): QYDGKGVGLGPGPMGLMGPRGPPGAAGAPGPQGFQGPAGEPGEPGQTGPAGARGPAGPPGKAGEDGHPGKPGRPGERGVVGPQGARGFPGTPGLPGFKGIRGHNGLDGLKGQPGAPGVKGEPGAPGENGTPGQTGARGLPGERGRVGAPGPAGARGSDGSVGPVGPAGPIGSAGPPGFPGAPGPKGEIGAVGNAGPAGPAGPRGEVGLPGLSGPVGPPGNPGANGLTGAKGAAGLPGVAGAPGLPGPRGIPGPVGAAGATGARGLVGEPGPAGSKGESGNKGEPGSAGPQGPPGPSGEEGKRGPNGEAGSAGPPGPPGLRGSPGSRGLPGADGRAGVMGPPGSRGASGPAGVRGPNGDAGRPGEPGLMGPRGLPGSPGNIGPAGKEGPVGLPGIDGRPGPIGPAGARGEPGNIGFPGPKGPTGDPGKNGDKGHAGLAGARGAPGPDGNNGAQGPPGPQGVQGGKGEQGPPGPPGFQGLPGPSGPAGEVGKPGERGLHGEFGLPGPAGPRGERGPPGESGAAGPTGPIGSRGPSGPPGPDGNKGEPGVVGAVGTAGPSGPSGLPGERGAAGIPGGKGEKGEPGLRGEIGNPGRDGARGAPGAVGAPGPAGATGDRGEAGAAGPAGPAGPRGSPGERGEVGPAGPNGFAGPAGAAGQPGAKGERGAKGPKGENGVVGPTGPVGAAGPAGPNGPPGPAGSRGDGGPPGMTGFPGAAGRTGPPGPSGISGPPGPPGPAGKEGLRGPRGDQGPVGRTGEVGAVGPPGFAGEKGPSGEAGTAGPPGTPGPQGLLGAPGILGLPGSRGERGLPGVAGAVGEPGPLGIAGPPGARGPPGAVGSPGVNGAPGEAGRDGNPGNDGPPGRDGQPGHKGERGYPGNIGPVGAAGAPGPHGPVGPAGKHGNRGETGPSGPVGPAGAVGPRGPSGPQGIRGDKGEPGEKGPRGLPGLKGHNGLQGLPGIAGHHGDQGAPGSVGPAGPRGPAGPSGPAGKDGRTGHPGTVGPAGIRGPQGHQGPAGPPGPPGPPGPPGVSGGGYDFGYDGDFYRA
Bridge positions count the residues as written; N and C are the ends. Square brackets hold non-standard residues; d marks the D form. Ends that are not written are not given here.
Outcome Measure: % bound (%)
Number only, in %; omit the unit.

Some solved entries appear below for comparison.
>  <Binder>
YHACYQAGC[dW]IW (disulfide 4-9 (inferred); not fully specified (C-terminus); printed as YHACYQAGCwIW, cyclic, disulfide) [SEQ ID NO 160]

>  <Outcome Measure>
% bound

>  <Value Unit>
%

>  <Measured Number>
20

$$$$
>  <Binder>
AWFCSQKNRLWSCGET (disulfide 4-13 (inferred), cyclic, disulfide) [SEQ ID NO 49]

>  <Outcome Measure>
% bound

>  <Value Unit>
%

>  <Measured Number>
19

$$$$
>  <Binder>
QWTCSGDEYAWHCNYE (disulfide 4-13 (inferred); not fully specified (N-terminus, C-terminus), cyclic, disulfide) [SEQ ID NO 146]

>  <Outcome Measure>
% bound

>  <Value Unit>
%

>  <Measured Number>
82

$$$$

Requested field: % bound. Item: YHACY[dQ]AGCWIW (disulfide 4-9 (inferred); not fully specified (C-terminus); printed as YHACYqAGCWIW, cyclic, disulfide; also called YHACYqAGCWIW) [SEQ ID NO 157] 37

Requested field: % bound. Item: TWACGWTTTGWDNCRWI (disulfide 4-14 (inferred), cyclic, disulfide) [SEQ ID NO 92] 34
